MIC reference
# System: Enterococcus faecalis
# assay method text: Antibacterial activity against Enterococcus faecalis assessed as inhibition of bacterial growth by micro-broth dilution assay
# Format: functional
Write it as a number; the unit µg/mL goes unstated.

Some solved entries appear below for comparison.
INSERT INTO measurements (compound, test_value) VALUES
  ('Cn1nnnc1SCC(O)CN1C(=O)/C(=N\Nc2ccc([N+](=O)[O-])cc2)c2ccccc21 (stereo not given)', 8),
  ('Cc1ccc(N/N=C2\C(=O)N(CC(O)CSc3nc[nH]n3)c3ccccc32)cc1 (stereo not given)', 2),
  ('Cn1ccnc1SCC(O)CN1C(=O)C(=O)c2ccccc21 (stereo not given)', 128),
  ('Cn1nnnc1SCC(O)CN1C(=O)/C(=N\Nc2ccc(C(=O)O)cc2)c2ccccc21 (stereo not given)', 8),
  ('Cn1ccnc1SCC(O)CN1C(=O)/C(=N\Nc2ccccc2)c2ccccc21 (stereo not given)', 128);

[Q] Hello, please tell me recorded MIC for this one: Cc1ccc(N/N=C2\C(=O)N(CC(O)CSc3nnnn3C)c3ccccc32)cc1 (stereo not given)
[A] 8

[Q] Return MIC for the following compound: O=C1/C(=N\Nc2ccc([N+](=O)[O-])cc2)c2ccccc2N1CC(O)CSc1nc[nH]n1 (stereo not given)
[A] 64

[Q] Supply recorded MIC for Cc1ccc(N/N=C2\C(=O)N(CC(O)CSc3nccn3C)c3ccccc32)cc1 (stereo not given) here.
[A] 128

[Q] For the compound Cn1ccnc1SCC(O)CN1C(=O)/C(=N\Nc2ccc(C(=O)O)cc2)c2ccccc21 (stereo not given) , give its measured MIC value.
[A] 4

[Q] Indicate its recorded MIC; the compound in question is Cn1nnnc1SCC(O)CN1C(=O)/C(=N\Nc2ccc(Cl)cc2)c2ccccc21 (stereo not given)
[A] 64

* * *

# System: Pseudomonas aeruginosa
# assay method text: Antibacterial activity against Pseudomonas aeruginosa assessed as inhibition of bacterial growth by micro-broth dilution assay
# Assay type: functional
Each record here notes measured MIC.
The reply should be a number in mg/L, with the unit left off.

Solved cases below.
INSERT INTO measurements (compound, test_value) VALUES
  ('Cc1ccc(N/N=C2\C(=O)N(CC(O)CSc3nccn3C)c3ccccc32)cc1 (centres undefined)', 128),
  ('Cn1nnnc1SCC(O)CN1C(=O)/C(=N\Nc2ccc(Cl)cc2)c2ccccc21 (centres undefined)', 16);

[Q] Item Cc1ccc(N/N=C2\C(=O)N(CC(O)CSc3nnnn3C)c3ccccc32)cc1 (centres undefined) : provide MIC
[A] 2

[Q] Specify measured MIC for Cn1ccnc1SCC(O)CN1C(=O)C(=O)c2ccccc21 (centres undefined) .
[A] 64

[Q] Tell us which MIC value is on record for Cn1nnnc1SCC(O)CN1C(=O)/C(=N\Nc2ccc(C(=O)O)cc2)c2ccccc21 (centres undefined)
[A] 128

[Q] For the compound Cn1ccnc1SCC(O)CN1C(=O)/C(=N\Nc2ccccc2)c2ccccc21 (centres undefined) , give its measured MIC value.
[A] 256

[Q] Read off the recorded MIC for Cc1ccc(N/N=C2\C(=O)N(CC(O)CSc3nc[nH]n3)c3ccccc32)cc1 (centres undefined)
[A] 64

[Q] Name the recorded MIC of the compound listed here: O=C1/C(=N\Nc2ccc(Cl)cc2)c2ccccc2N1CC(O)CSc1nc[nH]n1 (centres undefined)
[A] 16

[Q] Determine from records and report MIC for Cn1ccnc1SCC(O)CN1C(=O)/C(=N\Nc2ccc([N+](=O)[O-])cc2)c2ccccc21 (centres undefined)
[A] 256

* * *

# key: entry, value: HC50
# assay method text: Hemolytic activity in RBC (unknown origin) assessed as hemolysis
# Format: toxicity, cell-based, Erythrocyte
# run parameters: red blood cells (erythrocytes)
Number only, in µg/mL; omit the unit.

Reference set (3 entries):
INSERT INTO results (compound, test_value) VALUES
  ('O=C1C(=O)N(CC(O)CSc2nc[nH]n2)c2ccccc21 (stereo not drawn)', 285),
  ('Cn1nnnc1SCC(O)CN1C(=O)C(=O)c2ccccc21 (stereo not drawn)', 335),
  ('Cc1ccc(N/N=C2\C(=O)N(CC(O)CSc3nnnn3C)c3ccccc32)cc1 (stereo not drawn)', 383);

[Q] Assign HC50 to the following record: Cn1nnnc1SCC(O)CN1C(=O)/C(=N\Nc2ccc([N+](=O)[O-])cc2)c2ccccc21 (stereo not drawn)
[A] 262

[Q] Look up and state reported HC50 for Cn1ccnc1SCC(O)CN1C(=O)/C(=N\Nc2ccccc2)c2ccccc21 (stereo not drawn)
[A] 441

[Q] Fill in reported HC50 for this entry: Cc1ccc(N/N=C2\C(=O)N(CC(O)CSc3nc[nH]n3)c3ccccc32)cc1 (stereo not drawn)
[A] 416

[Q] Note HC50 for the compound shown: O=C1/C(=N\Nc2ccccc2)c2ccccc2N1CC(O)CSc1nc[nH]n1 (stereo not drawn)
[A] 375

[Q] Tell me HC50 reported for Cc1ccc(N/N=C2\C(=O)N(CC(O)CSc3nccn3C)c3ccccc32)cc1 (stereo not drawn)
[A] 358

[Q] Dear colleague, please send me the reported HC50 for O=C(O)c1ccc(N/N=C2\C(=O)N(CC(O)CSc3nc[nH]n3)c3ccccc32)cc1 (stereo not drawn) when you can.
[A] 282

[Q] Report HC50, nothing else, for this compound: Cn1nnnc1SCC(O)CN1C(=O)/C(=N\Nc2ccc(C(=O)O)cc2)c2ccccc21 (stereo not drawn)
[A] 292

[Q] Quick one: give measured HC50 for Cn1ccnc1SCC(O)CN1C(=O)/C(=N\Nc2ccc(Cl)cc2)c2ccccc21 (stereo not drawn)
[A] 151

[Q] // fetch HC50 given entry Cn1nnnc1SCC(O)CN1C(=O)/C(=N\Nc2ccccc2)c2ccccc21 (stereo not drawn)
[A] 406

[Q] Quickly give me recorded HC50 for O=C1/C(=N\Nc2ccc(Cl)cc2)c2ccccc2N1CC(O)CSc1nc[nH]n1 (stereo not drawn)
[A] 350

* * *

Measured MIC values are reported for all entries that follow.
# Test system: Enterococcus faecalis
# assay method text: Antibacterial activity against Enterococcus faecalis assessed as inhibition of bacterial growth by micro-broth dilution assay
# Format: functional
Give your result in µg/mL as a bare value.

INSERT INTO measurements (molecule, measured_endpoint, test_value) VALUES
  ('Cn1nnnc1SCC(O)CN1C(=O)C(=O)c2ccccc21 (centres undefined)', 'MIC', 64),
  ('Cn1ccnc1SCC(O)CN1C(=O)/C(=N\Nc2ccc([N+](=O)[O-])cc2)c2ccccc21 (centres undefined)', 'MIC', 128),
  ('Cn1ccnc1SCC(O)CN1C(=O)/C(=N\Nc2ccc(Cl)cc2)c2ccccc21 (centres undefined)', 'MIC', 4);

# ---- query molecule ----
[Q] Look up MIC of Cn1nnnc1SCC(O)CN1C(=O)/C(=N\Nc2ccccc2)c2ccccc21 (centres undefined) and report it.
[A] 32

* * *

# Tested on: Pseudomonas aeruginosa
# assay method text: Antibacterial activity against Pseudomonas aeruginosa assessed as inhibition of bacterial growth by micro-broth dilution assay
# Assay type: functional
measured endpoint: MIC (µg/mL)
Write the value in µg/mL as a bare number.

Below, each entry is followed by its recorded MIC result.
INSERT INTO measurements (molecule, test_value) VALUES
  ('O=C(O)c1ccc(N/N=C2\C(=O)N(CC(O)CSc3nc[nH]n3)c3ccccc32)cc1 (stereo not given)', 64),
  ('Cn1nnnc1SCC(O)CN1C(=O)/C(=N\Nc2ccccc2)c2ccccc21 (stereo not given)', 16),
  ('O=C1/C(=N\Nc2ccccc2)c2ccccc2N1CC(O)CSc1nc[nH]n1 (stereo not given)', 16),
  ('Cn1ccnc1SCC(O)CN1C(=O)/C(=N\Nc2ccc(C(=O)O)cc2)c2ccccc21 (stereo not given)', 1),
  ('O=C1C(=O)N(CC(O)CSc2nc[nH]n2)c2ccccc21 (stereo not given)', 16),
  ('Cn1ccnc1SCC(O)CN1C(=O)/C(=N\Nc2ccc(Cl)cc2)c2ccccc21 (stereo not given)', 64),
  ('CCn1cc(C(=O)O)c(=O)c2cc(F)c(N3CCNCC3)cc21', 8),
  ('Cn1nnnc1SCC(O)CN1C(=O)/C(=N\Nc2ccc([N+](=O)[O-])cc2)c2ccccc21 (stereo not given)', 2),
  ('Cn1nnnc1SCC(O)CN1C(=O)C(=O)c2ccccc21 (stereo not given)', 64);

[Q] Annotate the molecule O=C1/C(=N\Nc2ccc([N+](=O)[O-])cc2)c2ccccc2N1CC(O)CSc1nc[nH]n1 (stereo not given) with its measured MIC.
[A] 32

* * *

# Tested on: Escherichia coli
# assay method text: Antibacterial activity against Escherichia coli ATCC 25922 assessed as inhibition of bacterial growth by micro-broth dilution assay
# Type: functional
// classify: if (MIC < 60 µg/mL) yes else no

Here are 8 compounds together with their reported answers.
INSERT INTO results (compound, group) VALUES
  ('Cn1nnnc1SCC(O)CN1C(=O)/C(=N\Nc2ccc(Cl)cc2)c2ccccc21 (centres undefined)', 'yes'),
  ('Cn1nnnc1SCC(O)CN1C(=O)/C(=N\Nc2ccccc2)c2ccccc21 (centres undefined)', 'yes'),
  ('Cn1nnnc1SCC(O)CN1C(=O)C(=O)c2ccccc21 (centres undefined)', 'yes'),
  ('O=C1C(=O)N(CC(O)CSc2nc[nH]n2)c2ccccc21 (centres undefined)', 'no'),
  ('Cn1ccnc1SCC(O)CN1C(=O)/C(=N\Nc2ccc([N+](=O)[O-])cc2)c2ccccc21 (centres undefined)', 'no'),
  ('Cn1nnnc1SCC(O)CN1C(=O)/C(=N\Nc2ccc([N+](=O)[O-])cc2)c2ccccc21 (centres undefined)', 'yes'),
  ('CCn1cc(C(=O)O)c(=O)c2cc(F)c(N3CCNCC3)cc21 [NORFLOXACIN]', 'yes'),
  ('O=C1/C(=N\Nc2ccccc2)c2ccccc2N1CC(O)CSc1nc[nH]n1 (centres undefined)', 'no');

[Q] Decide: MIC of Cc1ccc(N/N=C2\C(=O)N(CC(O)CSc3nnnn3C)c3ccccc32)cc1 (centres undefined) strictly below 60 µg/mL?
[A] no
